pKd for assorted binders
- target_under_test: T1, HLA-A*0201 loaded with the Carcinoembryonic antigen (CEA)-derived … peptide (biotin on the C-terminal biotinylation tag)
- T1 construct: Soluble, biotinylated, immobilised on a streptavidin chip
- experimental_protocol: Biacore SPR
pKd: −log10 of the molar value.

The cases that follow already have their pKd on record.
SEQ ID NO 63 (receptor, mutated soluble two domain ILT-2) MGHLPKPTLWAEPGSVITLMQPVTLRCQGGQETQEYRLYREKKTAPWITRIPQELVKKGQFPIPSITWEHAGRYRCYYGSDTAGRSESSDPLELVVTGAYIKPTLSAQPSPVVNSGGNVTLQCDSQVAFDGFILCKEGEDEHPQCLNSQPHARGSSRAIFSVGPVSPSRRWWYRCYAYDSNSPYEWSLPSDLLELLVL    ≥ 6.00
SEQ ID NO 100 (receptor, mutated soluble two domain ILT-2) MGHLPKPTLWAEPGSVITQGSPVTLRCQGGQETQEYRLYREKKTAPWITRIPQELVKKGQFPIPSITWEHAGRYRCYYGSDTAGRSESSDPLELVVTGIYLQPTLSAQPSPVVNSGGNVTLQCDSQVAFDGFILCKEGEDEHPQCLNSQPHARGSSRAIFSVGPVSPGRRWWYRCYAYDSNSPYEWSLPSDLLELLVL    ≥ 6.00
SEQ ID NO 14 (receptor, mutated soluble two domain ILT-2) MAQHLPKPTLWAEPGSVITMDQPVTLRCQGGQETQEYRLYREKKTAPWITRIPQELVKKGQFPIPSITWEHAGRYRCYYGSDTSQWSASSDPLELVVTGVYIKPTLSAQPSPVVNSGGNVTLQCDSQVDFDGFILCKEGEDEHPQCLNSQPHARGSSRAIFSVGPVSPSRRWWYRCYAYDSNSPYEWSLPSDLLELDVDG    ≥ 6.00

Give recorded pKd. SEQ ID NO 78 (receptor, mutated soluble two domain ILT-2) MGHLPKPTLWAEPGSVITMDQPVTLRCQGGQETQEYRLYREKKTAPWITRIPQELVKKGQFPIPSITWEHAGRYRCYYGSQGGLRSESSDPLELVVTGVYIKPTLSAQPSPVVNSGGNVTLQCDSQVAFDGFILCKEGEDEHPQCLNSQPHARGSSRAIFSVGPVSPGRRWWYRCYAYDSNSPYEWSLPSDLLELLVL
≥ 6.00

Give recorded pKd. SEQ ID NO 75 (receptor, mutated soluble two domain ILT-2) MGHLPKPTLWAEPGSVITQGSPVTLRCQGGQETQEYRLYREKKTAPWITRIPQELVKKGQFPIPSITWEHAGRYRCYYGSQGGLRSESSDPLELVVTGAYIKPTLSAQPSPVVNSGGNVTLQCDSQVAFDGFILCKEGEDEHPQCLNSQPHARGSSRAIFSVGPVSPSRRWWYRCYAYDSNSPYEWSLPSDLLELLVL
≥ 6.00

Give recorded pKd. SEQ ID NO 85 (receptor, mutated soluble two domain ILT-2) MGHLPKPTLWAEPGSVITQGSPVTLRCQGGQETQEYRLYREKKTAPWITRIPQELVKKGQFPIPSITWEHAGRYRCYYGSDTAGRSESSDPLELVVTGIYQAPTLSAQPSPVVNSGGNVTLQCDSQVAFDGFILCKEGEDEHPQCLNSQPHARGSSRAIFSVGPVSPSRRWWYRCYAYDSNSPYEWSLPSDLLELLVL
≥ 6.00
